Every entry's value here was drawn from patent US20230348573A1.

Target: spike protein of SARS-CoV-2 γ strain on pseudovirus (SARS-CoV-2 (γ strain))
Assay: cell-based or functional assay
observed property: IC50 of pseudovirus infection (luciferase)

Item: Ab709TK (antibody, V domains shown) VH: QVQLVESGGGVVQPGKSLRLSCAASGFTFSSYAMHWVRLAPGKGLEWVAVISPDGKNKYYVDSVKGRSTISRDNSKNTLYLLMNSLRAEDTAVYYCATTQSLWFGQFYYIYGMDVWGQGTTVTVSS VL: QSVLTQPHSVSESPGKTITISCTGSSGSIASNYVQWYQQRPGSAPTTVIYEDTERPSGVPDRFSGSIDSSSNSASLTISGLKTEDEADYYCQSYDSNNVVFGGGTKLTVL | IC50 of pseudovirus infection (luciferase): 3.3 ng/mL
